Cited source: patent US11447466B2

Please go through the items and note down their pIC50.
Target: human TLR8 (Homo sapiens, UniProt Q9NR97)
Sequence (Q9NR97 27-1041): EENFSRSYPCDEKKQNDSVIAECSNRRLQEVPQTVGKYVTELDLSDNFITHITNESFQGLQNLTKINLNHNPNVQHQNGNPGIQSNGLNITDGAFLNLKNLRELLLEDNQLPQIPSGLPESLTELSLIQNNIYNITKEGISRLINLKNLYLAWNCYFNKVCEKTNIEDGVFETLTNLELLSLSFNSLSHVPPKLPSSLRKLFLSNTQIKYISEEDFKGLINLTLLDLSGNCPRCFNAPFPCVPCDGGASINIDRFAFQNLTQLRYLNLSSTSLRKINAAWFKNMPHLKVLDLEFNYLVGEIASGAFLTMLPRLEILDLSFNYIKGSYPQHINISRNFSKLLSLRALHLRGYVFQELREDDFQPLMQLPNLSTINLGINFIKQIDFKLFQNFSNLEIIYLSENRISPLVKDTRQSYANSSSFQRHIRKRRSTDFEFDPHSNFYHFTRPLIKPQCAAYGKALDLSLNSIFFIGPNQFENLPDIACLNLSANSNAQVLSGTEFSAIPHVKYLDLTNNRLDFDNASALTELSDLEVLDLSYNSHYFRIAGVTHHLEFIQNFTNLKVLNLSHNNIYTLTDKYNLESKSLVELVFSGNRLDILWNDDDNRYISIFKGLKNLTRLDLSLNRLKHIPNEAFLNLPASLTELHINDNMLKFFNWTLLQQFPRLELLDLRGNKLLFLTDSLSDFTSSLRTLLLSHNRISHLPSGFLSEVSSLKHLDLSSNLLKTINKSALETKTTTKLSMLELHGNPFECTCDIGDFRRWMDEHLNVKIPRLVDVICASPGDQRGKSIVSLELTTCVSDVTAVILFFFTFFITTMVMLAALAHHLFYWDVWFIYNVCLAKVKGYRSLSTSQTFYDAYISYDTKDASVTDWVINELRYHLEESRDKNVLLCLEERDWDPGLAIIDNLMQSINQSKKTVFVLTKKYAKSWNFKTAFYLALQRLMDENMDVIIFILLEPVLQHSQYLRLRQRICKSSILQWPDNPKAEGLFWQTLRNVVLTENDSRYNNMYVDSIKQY
Test: TLR8 inhibition reporter assay (HEK-Blue SEAP reporter, R848 stimulation)
Details: HEK-Blue cells overexpressing human TLR8, SEAP reporter, R848 15.9 μM, 22 hour incubation
Numbers only, as −log10 of the molar value.

{"Compound": "CC(C)c1c(-c2ccc(=O)n(C)c2)[nH]c2ccc(C3CCN(C4COC4)CC3)cc12 [Example 175]", "Reading": 7.06}
{"Compound": "Cc1cc(-c2[nH]c3ccc(C4CCNCC4)cc3c2C(C)C)cn(CCO)c1=O [Example 30]", "Reading": 8.00}

For each of the compounds below, state pIC50.
1. Cc1cc(-c2[nH]c3ccc(C4CCN(CC(=O)NC[C@H](C)O)CC4)cc3c2C(C)C)cn(C)c1=O [Example 126]
2. CCCN1CCC(c2ccc3[nH]c(-c4cc(-c5ccc(NC(C)=O)nc5)c(=O)n(C)c4)c(C(C)C)c3c2)CC1 [Example 335]
3. Cc1cc(-c2[nH]c3ccc(C4CCNCC4)cc3c2C(C)C)c(C)n(C)c1=O [Example 3]
4. CCn1nc(-c2[nH]c3ccc(C4CCNCC4)cc3c2C(C)C)c(C)c(C)c1=O [Example 27]
5. Cc1cc(-c2[nH]c3ccc(C4CCN(C5COC5)CC4)cc3c2C(C)C)c(C)n(C)c1=O [Example 211]
6. CC(C)c1c(-c2cc(-c3cncnc3)c(=O)n(C)c2)[nH]c2ccc(C3CCN(CC4CCOC4)CC3)cc12 (centres unmarked) [Example 257]

Return:
6.20
8.23
8.47
7.73
7.77
8.96
